FYI, the data here is from patent US20160046684A1.

# System: PTP1B
# Assay Details: Phosphatase activity of PTP1B constructs against pNPP (enzyme assay)
# Format: biochemical, human
# Condition Details: pNPP substrate, pH 7.5, 0.015 μM PTP1B (FIG. 27, 32A, 32B)
Experimental Readout: Km (µM)
Write the number in µM without appending the unit.

Molecule: PTP1BW291A: PTP1B1-301 mutant with point mutation in the α7 helix (protein, UniProt P18031 1-301, looked up, variant W291A) MEMEKEFEQIDKSGSWAAIYQDIRHEASDFPCRVAKLPKNKNRNRYRDVSPFDHSRIKLHQEDNDYINASLIKMEEAQRSYILTQGPLPNTCGHFWEMVWEQKSRGVVMLNRVMEKGSLKCAQYWPQKEEKEMIFEDTNLKLTLISEDIKSYYTVRQLELENLTTQETREILHFHYTTWPDFGVPESPASFLNFLFKVRESGSLSPEHGPVVVHCSAGIGRSGTFCLADTCLLLMDKRKDPSSVDIKKVLLEMRKFRMGLIQTADQLRFSYLAVIEGAKFIMGDSSVQDQAKELSHEDLEP
Value Units: µM
Quantitative Readout: 990

From here, focus on the item given below.
// query Dear colleague, I am looking for the recorded Km of the following molecule: PTP1BF196A: PTP1B1-301 mutant with mutation in the α3 helix (protein, UniProt P18031 1-301, looked up, variant F196A) MEMEKEFEQIDKSGSWAAIYQDIRHEASDFPCRVAKLPKNKNRNRYRDVSPFDHSRIKLHQEDNDYINASLIKMEEAQRSYILTQGPLPNTCGHFWEMVWEQKSRGVVMLNRVMEKGSLKCAQYWPQKEEKEMIFEDTNLKLTLISEDIKSYYTVRQLELENLTTQETREILHFHYTTWPDFGVPESPASFLNFLAKVRESGSLSPEHGPVVVHCSAGIGRSGTFCLADTCLLLMDKRKDPSSVDIKKVLLEMRKFRMGLIQTADQLRFSYLAVIEGAKFIMGDSSVQDQWKELSHEDLEP
// result 320
